- target_entity: Full-length human PRMT8 (Homo sapiens, UniProt Q9NR22)
- Construct: Full-length human PRMT8 (NM_019854.4) isoform 1 transcript clone; made in house
- Sequence (Q9NR22 whole entry, canonical isoform): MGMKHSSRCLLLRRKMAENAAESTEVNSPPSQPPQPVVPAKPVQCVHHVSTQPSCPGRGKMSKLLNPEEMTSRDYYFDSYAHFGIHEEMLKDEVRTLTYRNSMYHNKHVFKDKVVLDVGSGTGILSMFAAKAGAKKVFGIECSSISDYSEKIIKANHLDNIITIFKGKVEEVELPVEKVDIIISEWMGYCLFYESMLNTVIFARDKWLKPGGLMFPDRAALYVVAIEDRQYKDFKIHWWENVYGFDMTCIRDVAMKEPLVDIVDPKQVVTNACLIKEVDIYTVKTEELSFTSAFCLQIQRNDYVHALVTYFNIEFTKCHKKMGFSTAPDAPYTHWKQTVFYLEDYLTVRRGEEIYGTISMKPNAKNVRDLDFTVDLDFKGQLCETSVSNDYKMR
- assay_remarks: PRMT8 biochemical assay (3H-SAM Flashplate, peptide substrate)
pIC50: −log10 of the molar value.
# pIC50 per record follows

Solved cases (5 shown):
| chemical_string | pIC50 |
| --- | --- |
| CN(CCN)Cc1n[nH]cc1-c1ccc(C2CC2)cc1 | 6.00 to 7.00 |
| CCN(C)C(=O)c1cccc(-c2n[nH]cc2CN(C)CCN)c1 | < 5.00 |
| CNCCN(C)Cc1cnn(C)c1-c1ccc(F)cc1 | 6.00 to 7.00 |
| CN(CCN)Cc1cn(C2COC2)nc1-c1ccc(F)cc1 | 5.52 to 6.00 |
| CNCCN(C)Cc1c[nH]nc1-c1cccc(C#N)c1 | 5.52 to 6.00 |

I would be grateful if you could share the reported pIC50 for `COCCn1cc(CN(C)CCN(C)C)c(-c2ccc(F)cc2)n1` . < 5.00

I would be grateful if you could share the reported pIC50 for `Cc1ccc(-c2n[nH]cc2CN(C)CCN)cc1` . 6.00 to 7.00

I would be grateful if you could share the reported pIC50 for `Cc1ccc(F)cc1-c1n[nH]cc1CN(C)CCN` . 6.00 to 7.00

I would be grateful if you could share the reported pIC50 for `COc1ccccc1-c1n[nH]cc1CN(C)CCN` . 5.52 to 6.00

I would be grateful if you could share the reported pIC50 for `CNCCN(C)Cc1cnn(CC(=O)OC)c1-c1ccc(OC(C)C)cc1` . 5.52 to 6.00

----------
- target_entity: Full-length human PRMT8 (Homo sapiens)
- Construct: Full-length human PRMT8 (NM_019854.4) isoform 1 transcript clone
- assay_remarks: PRMT8 biochemical assay (3H-SAM Flashplate, peptide substrate)
pIC50: −log10 of the molar value.
# pIC50 per record follows

Solved cases (5 shown):
| compound | pIC50 |
| --- | --- |
| CNCCN(C)Cc1c[nH]nc1-c1ccccc1-c1ccccc1 [Compound 46] | < 5.00 |
| CN(CCN)Cc1c[nH]nc1-c1ccc(Cl)c(F)c1 [Compound 118] | 6.00 to 7.00 |
| CN(CCN)Cc1cn(CC2COC2)nc1-c1ccc(F)cc1 [Compound 79] | < 5.00 |
| CN(CCN)Cc1c[nH]nc1-c1cc(C#N)ccc1Cl [Compound 147] | < 5.00 |
| CN(CCN)Cc1c[nH]nc1-c1ccc(Cl)cc1F [Compound 132] | 6.00 to 7.00 |

Switching to the query record.
I would be grateful if you could share the reported pIC50 for CN(CCN)Cc1c[nH]nc1-c1ccc2c(c1)N(C)C(=O)CO2 [Compound 196] . 5.52 to 6.00

----------
- target_entity: Full-length human PRMT6 (Homo sapiens)
- Construct: Flag-PRMT6-His was eluted with 200 ug/ml FLAG peptide in the same buffer; made in house; host or cells: HEK 293F cells (BacMam virus, pFastBacMam)
- Sequence (Q96LA8 with tags, fused parts or gaps): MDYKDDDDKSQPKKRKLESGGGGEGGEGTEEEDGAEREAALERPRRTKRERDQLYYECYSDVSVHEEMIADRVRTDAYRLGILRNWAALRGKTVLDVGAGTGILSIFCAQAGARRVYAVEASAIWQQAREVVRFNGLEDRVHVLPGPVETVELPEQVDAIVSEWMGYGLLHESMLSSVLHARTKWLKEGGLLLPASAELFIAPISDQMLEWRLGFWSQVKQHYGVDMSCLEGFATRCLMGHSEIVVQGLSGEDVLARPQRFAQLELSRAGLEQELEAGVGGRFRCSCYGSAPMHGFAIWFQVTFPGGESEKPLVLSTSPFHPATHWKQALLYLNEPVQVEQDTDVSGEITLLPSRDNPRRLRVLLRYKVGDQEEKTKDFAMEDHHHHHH
- assay_remarks: PRMT6 biochemical assay (3H-SAM Flashplate, peptide substrate)
pIC50: −log10 of the molar value.
parameter_measured: pIC50

| molecule | pIC50 |
| --- | --- |
| CNCCN(C)Cc1n[nH]cc1-c1ccc(Oc2ccccc2F)cc1 [Compound 279] | > 7.00 |
| CN(CCN)Cc1n[nH]cc1-c1ccc(C(F)(F)F)cc1 [Compound 103] | > 7.00 |
| CN(CCN)Cc1c[nH]nc1-c1ccc(OC(F)F)cc1 [Compound 94] | > 7.00 |
| CN(CCN)Cc1n[nH]cc1-c1ccc(OC(F)F)cc1 [Compound 138] | > 7.00 |
| COc1ccc(-c2n[nH]cc2CN(C)CCN)c(F)c1 [Compound 107] | > 7.00 |
| CN(CCN)Cc1c[nH]nc1-c1ccc(C(F)(F)F)cc1F [Compound 148] | > 7.00 |
| CNCCN(C)Cc1cn(C)nc1-c1ccc(Oc2ccccc2)cc1 [Compound 207] | > 7.00 |
| CCCc1ccc(-c2n[nH]cc2CN(C)CCNC)cc1 [Compound 20] | > 7.00 |
| CN(CCN)Cc1c[nH]nc1-c1ccc(Cl)cc1 [Compound 95] | > 7.00 |

Switching to the query record.
Requested read-out pIC50, target or system Full-length human PRMT6 (Homo sapiens), entry Cc1c(F)cccc1-c1n[nH]cc1CN(C)CCN [Compound 129] > 7.00

----------
# IC50 per record follows
- target_entity: Human CARM1 (PRMT4) (Homo sapiens, UniProt Q86X55)
- Sequence (Q86X55 with tags, fused parts or gaps isoform Q86X55-1): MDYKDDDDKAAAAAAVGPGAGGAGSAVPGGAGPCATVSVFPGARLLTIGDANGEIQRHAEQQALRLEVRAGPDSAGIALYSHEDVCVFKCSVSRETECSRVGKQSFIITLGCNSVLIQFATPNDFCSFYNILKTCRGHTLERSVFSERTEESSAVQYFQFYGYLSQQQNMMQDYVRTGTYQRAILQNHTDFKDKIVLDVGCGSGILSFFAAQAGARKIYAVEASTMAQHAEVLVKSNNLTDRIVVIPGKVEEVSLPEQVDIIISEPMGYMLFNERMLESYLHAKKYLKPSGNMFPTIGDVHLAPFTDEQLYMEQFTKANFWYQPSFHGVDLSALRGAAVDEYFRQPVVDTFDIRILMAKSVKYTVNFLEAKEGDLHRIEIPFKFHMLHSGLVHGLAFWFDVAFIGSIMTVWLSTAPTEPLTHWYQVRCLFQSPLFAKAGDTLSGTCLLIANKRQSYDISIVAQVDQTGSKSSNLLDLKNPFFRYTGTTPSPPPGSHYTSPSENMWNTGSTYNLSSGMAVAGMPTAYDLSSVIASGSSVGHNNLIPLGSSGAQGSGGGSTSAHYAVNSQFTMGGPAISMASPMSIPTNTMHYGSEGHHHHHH
Where a name gives a salt, the structure may show the parent alone.

| compound | parameter_measured | result_value |
| --- | --- | --- |
| CN(CCN)Cc1c[nH]nc1-c1ccccc1F | IC50 | 3.01 to 10 µM |
| CN(CCN)Cc1n[nH]cc1-c1ccc(OC(F)(F)F)cc1 | IC50 | 3.01 to 10 µM |
| CNCCN(C)Cc1cn(CCOC)nc1-c1ccc(OC(C)C)cc1 [Compound 253, hydrochloride] | IC50 | 1.01 to 3 µM |

Requested read-out IC50, target or system Human CARM1 (PRMT4) (Homo sapiens, UniProt Q86X55), entry `COc1ccc(Cl)cc1-c1n[nH]cc1CN(C)CCN` > 10 µM

Requested read-out IC50, target or system Human CARM1 (PRMT4) (Homo sapiens, UniProt Q86X55), entry `CN(CCN)Cc1nn(C)cc1-c1ccc(C#N)cc1` 1.01 to 3 µM

Requested read-out IC50, target or system Human CARM1 (PRMT4) (Homo sapiens, UniProt Q86X55), entry `COc1ccc(-c2n[nH]cc2CN(C)CCN)c(C(F)(F)F)c1` > 10 µM

----------
- target_entity: Human CARM1 (PRMT4) (Homo sapiens)
parameter_measured: IC50

| molecule | IC50 |
| --- | --- |
| CC(C)N(CCN)Cc1c[nH]nc1-c1ccc(F)cc1 [Compound 75] | > 10 µM |
| CN(CCN)Cc1cn(CCO)nc1-c1ccc(F)cc1 [Compound 66] | 3.01 to 10 µM |
| CC(=O)c1cccc(-c2n[nH]cc2CN(C)CCN)c1 [Compound 112] | 1.01 to 3 µM |
| COc1cc(-c2n[nH]cc2CN(C)CCN)ccc1F [Compound 142] | 1.01 to 3 µM |

Switching to the query record.
Requested read-out IC50, target or system Human CARM1 (PRMT4) (Homo sapiens), entry CNCCN(C)Cc1c[nH]nc1-c1ccc(OC)cc1 [Compound 25] 1.01 to 3 µM

----------
- target_entity: Full-length human PRMT3 (Homo sapiens)
- Sequence (O60678 with tags, fused parts or gaps): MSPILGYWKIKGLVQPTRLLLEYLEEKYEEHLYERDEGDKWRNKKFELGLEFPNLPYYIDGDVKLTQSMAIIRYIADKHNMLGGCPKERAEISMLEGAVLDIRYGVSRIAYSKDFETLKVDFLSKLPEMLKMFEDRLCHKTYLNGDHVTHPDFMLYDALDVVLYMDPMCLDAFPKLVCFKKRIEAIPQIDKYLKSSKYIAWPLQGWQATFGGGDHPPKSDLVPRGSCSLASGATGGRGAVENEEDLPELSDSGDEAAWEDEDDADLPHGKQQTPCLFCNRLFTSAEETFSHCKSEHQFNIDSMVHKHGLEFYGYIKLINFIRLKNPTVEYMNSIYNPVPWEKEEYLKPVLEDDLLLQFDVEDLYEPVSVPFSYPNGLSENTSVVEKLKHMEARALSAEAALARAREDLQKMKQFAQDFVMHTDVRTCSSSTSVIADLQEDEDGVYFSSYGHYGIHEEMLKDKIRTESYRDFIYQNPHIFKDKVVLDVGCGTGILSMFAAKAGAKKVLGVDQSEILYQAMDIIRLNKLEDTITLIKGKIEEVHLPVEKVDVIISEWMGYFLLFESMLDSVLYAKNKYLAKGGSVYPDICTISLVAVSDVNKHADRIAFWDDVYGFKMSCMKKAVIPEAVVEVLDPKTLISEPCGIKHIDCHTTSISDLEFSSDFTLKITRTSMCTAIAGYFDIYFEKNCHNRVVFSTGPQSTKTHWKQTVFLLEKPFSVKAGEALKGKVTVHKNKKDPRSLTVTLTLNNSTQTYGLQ
parameter_measured: IC50

| molecule | IC50 |
| --- | --- |
| CCNC(=O)c1ccc(-c2n[nH]cc2CN(C)CCN)cc1 [Compound 136] | > 10 µM |
| CC(C)Oc1ccc(-c2c[nH]nc2CN(C)CCN)cc1F [Compound 144] | > 10 µM |

Requested read-out IC50, target or system Full-length human PRMT3 (Homo sapiens), entry CCNCCN(C)Cc1c[nH]nc1-c1ccc(F)cc1 [Compound 60] > 10 µM

Requested read-out IC50, target or system Full-length human PRMT3 (Homo sapiens), entry CNCCN(C)Cc1c[nH]nc1-c1ccc(OC)cc1 [Compound 25] > 10 µM

Requested read-out IC50, target or system Full-length human PRMT3 (Homo sapiens), entry CNCCN(C)Cc1c[nH]nc1-c1ccc2ccccc2c1 [Compound 58] 3.01 to 10 µM

Requested read-out IC50, target or system Full-length human PRMT3 (Homo sapiens), entry CNCCN(C)Cc1c[nH]nc1-c1cccc(NC(C)=O)c1 [Compound 42] 1.01 to 3 µM

Requested read-out IC50, target or system Full-length human PRMT3 (Homo sapiens), entry CN(CCN)Cc1c[nH]nc1-c1cc(F)ccc1Cl [Compound 106] > 10 µM

Requested read-out IC50, target or system Full-length human PRMT3 (Homo sapiens), entry CN(CCN)Cc1n[nH]cc1-c1ccc(F)cc1 [Compound 69] > 10 µM

Requested read-out IC50, target or system Full-length human PRMT3 (Homo sapiens), entry CNCCN(C)Cc1c[nH]nc1-c1ccc(-c2ccccc2)cc1 [Compound 47] 0.101 to 1 µM

Requested read-out IC50, target or system Full-length human PRMT3 (Homo sapiens), entry Cc1ccc(F)cc1-c1n[nH]cc1CN(C)CCN [Compound 159] > 10 µM

----------
- target_entity: Full-length human PRMT3 (Homo sapiens)
pIC50: −log10 of the molar value.
parameter_measured: pIC50

| chemical_string | target_entity | parameter_measured | result_value |
| --- | --- | --- | --- |
| CNCCN(C)Cc1c[nH]nc1-c1ccc(N)cc1 | Full-length human PRMT3 (Homo sapiens) | pIC50 | 5.52 to 6.00 |
| CNCCN(C)Cc1c[nH]nc1-c1cc(Cl)ccc1OC | Full-length human PRMT3 (Homo sapiens) | pIC50 | < 5.00 |
| CC(=O)c1cccc(-c2n[nH]cc2CN(C)CCN)c1 | Full-length human PRMT3 (Homo sapiens) | pIC50 | 5.00 to 5.52 |
| NCCN(Cc1c[nH]nc1-c1ccc(F)cc1)C1CC1 | Full-length human PRMT3 (Homo sapiens) | pIC50 | < 5.00 |
| COc1cccc(-c2n[nH]cc2CN(C)CCN)c1 | Full-length human PRMT3 (Homo sapiens) | pIC50 | 5.00 to 5.52 |

I would be grateful if you could share the reported pIC50 for `CN(CCN)Cc1cnn(CCO)c1-c1ccc(F)cc1` . < 5.00

I would be grateful if you could share the reported pIC50 for `CN(CCN)Cc1c[nH]nc1-c1ccc(Cl)cc1Cl` . 5.00 to 5.52

I would be grateful if you could share the reported pIC50 for `CN(CCN)Cc1c[nH]nc1-c1ccc(C(C)(C)C)cc1` . < 5.00

I would be grateful if you could share the reported pIC50 for `CNCCN(C)Cc1c[nH]nc1-c1cccc(OC)c1OC` . < 5.00

I would be grateful if you could share the reported pIC50 for `CN(CCN)Cc1c[nH]nc1-c1cc(F)cc(F)c1` . 5.00 to 5.52
